biological target: b-Raf (V600E) (Homo sapiens (Human), UniProt P15056, V600E); conditions: read-out: b-Raf IC-50; AlphaScreen, 60 min pre-incubation, reaction 3 hours at room temperature
Sequence (P15056 whole entry V600E): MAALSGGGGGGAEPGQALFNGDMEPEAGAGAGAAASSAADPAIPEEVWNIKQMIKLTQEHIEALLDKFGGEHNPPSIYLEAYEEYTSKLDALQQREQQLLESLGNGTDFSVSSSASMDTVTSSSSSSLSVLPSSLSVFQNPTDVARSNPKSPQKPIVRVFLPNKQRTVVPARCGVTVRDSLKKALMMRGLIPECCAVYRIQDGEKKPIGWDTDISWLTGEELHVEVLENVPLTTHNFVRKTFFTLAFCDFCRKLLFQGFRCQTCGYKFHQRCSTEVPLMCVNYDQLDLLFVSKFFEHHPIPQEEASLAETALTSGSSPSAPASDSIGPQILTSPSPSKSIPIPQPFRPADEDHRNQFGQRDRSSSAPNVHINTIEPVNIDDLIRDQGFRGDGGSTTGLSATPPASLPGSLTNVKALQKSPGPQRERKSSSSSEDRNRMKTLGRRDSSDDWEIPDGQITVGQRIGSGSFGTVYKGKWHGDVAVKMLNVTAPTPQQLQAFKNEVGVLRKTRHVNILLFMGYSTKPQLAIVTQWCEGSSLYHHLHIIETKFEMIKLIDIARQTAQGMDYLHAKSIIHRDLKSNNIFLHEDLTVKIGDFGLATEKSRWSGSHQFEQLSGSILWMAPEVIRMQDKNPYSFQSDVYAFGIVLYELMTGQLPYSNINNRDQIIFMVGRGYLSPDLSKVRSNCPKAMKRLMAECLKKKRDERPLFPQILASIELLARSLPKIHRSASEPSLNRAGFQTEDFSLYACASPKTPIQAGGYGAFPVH
pIC50: −log10 of the molar value.
In this section, each of the compounds is paired with its reported pIC50.

Mol smiles: Cc1ccc(NC(=O)c2ccnc(C(C)(F)F)c2)cc1-c1cc(N2CCOCC2)c(S(C)(=O)=O)nn1
pIC50: 8.98
--
Mol smiles: Cc1ccc(NC(=O)c2cccc(C(F)F)c2)cc1-c1cc(N2CCOCC2)nc(N2CC(O)C2)c1
pIC50: 9.07
--
Mol smiles: Cc1ccc(NC(=O)c2ccnc(C(C)(C)C#N)c2)cc1-c1cn2ccnc2c(N2CCOCC2)n1
pIC50: 7.94
--
Mol smiles: Cc1ccc(NC(=O)c2cccc(C(F)(F)F)c2)cc1-c1cc(N2CCOCC2)nc(N2CC[C@@H](O)C2=O)c1
pIC50: 9.28
--
Mol smiles: Cc1ncc(NC(=O)c2ccnc(C(C)(C)O)c2)cc1-c1cnc(OC2CC3(COC3)C2)c(N2CCOCC2)c1
pIC50: 8.09
--
Mol smiles: Cc1ccc(NC(=O)c2cnnc(C(F)(F)F)c2)cc1-c1cc(N2CCOCC2)c2nccn2c1
pIC50: 9.15
--
Mol smiles: COC(=O)NC[C@@H](C)Oc1ncc(-c2cc(NC(=O)c3cccc(C(F)(F)F)c3)cnc2C)cc1N1CCOCC1
pIC50: 8.39

###

target: b-Raf (V600E) (Homo sapiens (Human), UniProt P15056, V600E); conditions: read-out: b-Raf IC-50; AlphaScreen, 60 min pre-incubation, 3 hours reaction
Please respond with yes (1) when measured IC50 is strictly beneath 3 nM, and with no (0) in all other cases.

Mol smiles: Cc1ccc(NC(=O)c2cc(C(F)(F)F)ccn2)cc1-c1cc(N2CCOCC2)c(OC(C)C)nn1
Answer label: yes (1)

Mol smiles: Cc1ccc(NC(=O)c2cc(CN(C)C)cc(C(F)(F)F)c2)cc1-c1cc(N2CCOCC2)c(=O)n(C)n1
Answer label: no (0)

Mol smiles: COCCOc1nnc(-c2cc(NC(=O)c3cc(C(F)(F)F)ccn3)ccc2C)cc1N1CCOCC1
Answer label: yes (1)

Mol smiles: CCOc1nnc(-c2cc(NC(=O)c3cnnc(C(F)(F)F)c3)cnc2C)cc1N1CCOCC1
Answer label: no (0)

Mol smiles: Cc1ncc(NC(=O)c2ccnc(C3CC3)c2)cc1-c1cc(N2CCOCC2)c(=O)n(C)n1
Answer label: no (0)

Mol smiles: Cc1ccc(NC(=O)c2ccnc(N(C)CCO)c2)cc1-c1cc(N2CCOCC2)c(=O)n(C)c1
Answer label: no (0)

Mol smiles: Cc1ccc(NC(=O)c2ccnc(S(C)(=O)=O)c2)cc1-c1cc(N2CCOCC2)n(C)c(=O)c1
Answer label: yes (1)

Mol smiles: Cc1ccc(C(=O)Nc2cccc(C(C)C)c2)cc1-c1cc(N2CCOCC2)c(=O)n(C)c1
Answer label: no (0)

Mol smiles: CCOc1nnc(-c2cc(NC(=O)c3cccc(C(F)F)c3)ccc2C)cc1N1CCOCC1
Answer label: yes (1)

Mol smiles: Cc1ccc(NC(=O)c2ccnc(C(C)(F)F)c2)cc1-c1cc(N2CCOCC2)nc(OC2CNC2)n1
Answer label: yes (1)

Mol smiles: Cc1ccc(NC(=O)c2ccnc(C(F)(F)F)c2)cc1-c1cc(N2CCOCC2)n(C)c(=O)c1
Answer label: yes (1)

Mol smiles: CCOc1nnc(-c2cc(NC(=O)c3cnnc(C(C)(C)C#N)c3)ccc2C)cc1N1CCOCC1
Answer label: yes (1)

Mol smiles: CCOc1nnc(-c2cc(NC(=O)c3ccnc(C(C)(C)C#N)c3)ccc2C)cc1N1CCOC[C@H]1C
Answer label: no (0)

Mol smiles: Cc1ncc(NC(=O)c2ccnc(C(C)(C)C#N)c2)cc1-c1cc(N2CCOCC2)c(=O)n(C)n1
Answer label: no (0)

Mol smiles: Cc1ccc(NC(=O)c2cccc(C(C)(C)S(C)(=O)=O)c2)cc1-c1cc(N2CCOCC2)c(=O)n(C)n1
Answer label: no (0)

###

target: b-Raf (V600E) (Homo sapiens (Human), UniProt P15056, V600E); conditions: read-out: b-Raf IC-50; Table 2; AlphaScreen, 3 hours reaction

Mol smiles: Cc1ccc(NC(=O)c2cn(C(C)C)nc2C)cc1-c1cc(N2CCOCC2)c(=O)n(C)c1
IC50: 12.6 nM
//
Mol smiles: Cc1ncc(NC(=O)c2cccc(C(C)(C)C#N)c2)cc1-c1cc(N2CCOCC2)c(=O)n(C)c1
IC50: 64.2 nM
//
Mol smiles: Cc1ccc(NC(=O)c2cccc(OC(C)C)c2)cc1-c1cc(N2CCOCC2)c(=O)n(C)c1
IC50: 1.6 nM
//
Mol smiles: Cn1cc(-c2cc(NC(=O)c3ccnc(C(F)(F)F)c3)ccc2F)cc(N2CCOCC2)c1=O
IC50: 3.5 nM
//
Mol smiles: Cn1cc(-c2cc(NC(=O)c3ccnc(C(F)(F)F)c3)ccc2C#N)cc(N2CCOCC2)c1=O
IC50: 10100 nM
//
Mol smiles: Cc1ccc(NC(=O)c2ccnc(C(C)C)c2)cc1-c1cc(N2CCOCC2)c(=O)n(C)c1
IC50: 2.7 nM
//
Mol smiles: Cc1ncc(NC(=O)c2cccc(C(F)(F)F)c2)cc1-c1cnc(OCC(F)F)c(N2CCOCC2)c1
IC50: 1.8 nM
//
Mol smiles: Cc1ccc(NC(=O)c2ccnc(S(C)(=O)=O)c2)cc1-c1cc(N2CCOCC2)c(=O)n(C)c1
IC50: 3.1 nM
//
Mol smiles: CCn1cc(C(=O)Nc2ccc(C)c(-c3cc(N4CCOCC4)c(=O)n(C)c3)c2)c(C)n1
IC50: 85.9 nM
//
Mol smiles: COc1ncc(-c2cc(NC(=O)c3ccnc(C4(C#N)CC4)c3)cnc2Cl)cc1N1CCOCC1
IC50: 2.9 nM
//
Mol smiles: Cc1ncc(NC(=O)c2cc(C3CC3)nn2C)cc1-c1cc(N2CCOCC2)c(=O)n(C)c1
IC50: 200 nM
//
Mol smiles: Cc1cn(-c2cc(NC(=O)c3ccc(C)c(-c4cc(N5CCOCC5)c(=O)n(C)c4)c3)cc(C(F)(F)F)c2)cn1
IC50: 10.1 nM
//
Mol smiles: Cc1ccc(NC(=O)c2cnccn2)cc1-c1ccnc(N2CCOCC2)c1
IC50: 200 nM
//
Mol smiles: CCOc1ncc(-c2cc(NC(=O)c3cc(C(F)(F)F)c(=O)n(CC)c3)cnc2C)cc1N1CCOCC1
IC50: 5.7 nM
//
Mol smiles: Cc1ncc(NC(=O)c2cnnc(C(C)(C)C#N)c2)cc1-c1cncc(N2CCOCC2)c1
IC50: 24.7 nM
//
Mol smiles: Cc1ccc(C(=O)Nc2cccc(C(F)(F)F)c2)cc1-c1cc(N2CCOCC2)c(=O)n(C)c1
IC50: 7.1 nM

###

target: b-Raf (V600E) (Homo sapiens (Human), UniProt P15056, V600E); experiment: biochemical
# log10(IC50) per record follows
Reported endpoint: log10(IC50) (log10 of the value in nM)

Mol smiles: CCOc1nnc(-c2cc(NC(=O)c3cccc(S(C)(=O)=O)c3)ccc2C)cc1N1CCOCC1
Assay result: -0.05
--
Mol smiles: CCn1cc(C(=O)Nc2ccc(C)c(-c3cc4[nH]cnc4c(N4CCOCC4)n3)c2)c(C)n1
Assay result: 1.51
--
Mol smiles: Cc1ccc(NC(=O)c2cn(C(C)C)nc2C)cc1-c1cc2[nH]cnc2c(N2CCOCC2)n1
Assay result: 1.24
--
Mol smiles: Cc1ncc(NC(=O)c2cccc(C(F)(F)F)c2)cc1-c1cnc(OC[C@H](C)O)c(N2CCOCC2)c1
Assay result: 0.17
--
Mol smiles: CCNc1nc(-c2cc(C(=O)Nc3cccc(C(F)(F)F)c3)ccc2C)cc(N2CCOCC2)n1
Assay result: 0.60
--
Mol smiles: CNCc1ccc(C(=O)Nc2ccc(C)c(-c3cc(N4CCOCC4)c4nccn4c3)c2)cc1C(F)(F)F
Assay result: 0.38
--
Mol smiles: Cc1ccc(NC(=O)c2cn(C)nc2C)cc1-c1cc2[nH]cnc2c(N2CCOCC2)n1
Assay result: 2.00
--
Mol smiles: Cc1ccc(NC(=O)c2ccnc(C(C)(C)C#N)c2)cc1-c1cc(N2CCOCC2)c(OC(C)C)nn1
Assay result: 0.11
--
Mol smiles: Cc1ccc(NC(=O)c2cc(CO)cc(C(F)(F)F)c2)cc1-c1cc(N2CCOCC2)c(=O)n(C)c1
Assay result: 0.49
--
Mol smiles: Cc1ccc(NC(=O)c2ccc(CO)c(C(F)(F)F)c2)cc1-c1cc(N2CCOCC2)c(=O)n(C)c1
Assay result: 0.57

###

target: b-Raf (V600E) (Homo sapiens (Human), UniProt P15056, V600E); conditions: read-out: b-Raf IC-50; AlphaScreen, 60 min pre-incubation, 3 hours reaction
pIC50: −log10 of the molar value.

Mol smiles: Cc1ncc(NC(=O)c2cccc(C(F)(F)F)c2)cc1-c1cc(N2CCOCC2)nc(C(C)(C)O)n1
pIC50: 6.70
//
Mol smiles: Cc1ccc(NC(=O)c2ccnc(C3(C#N)CC3)c2)cc1-c1cc(N2CCOCC2)n2nccc2n1
pIC50: 9.15
//
Mol smiles: Cc1ncc(NC(=O)c2ccnc(C(F)F)c2)cc1-c1cncc(N2CCOCC2)n1
pIC50: 7.34
//
Mol smiles: Cc1ccc(NC(=O)c2cccc(C(F)F)c2)cc1-c1cc(N2CCOCC2)n(C)c(=O)c1
pIC50: 9.40
//
Mol smiles: Cc1ncc(NC(=O)c2cccc(C(F)F)c2)cc1-c1cc(N2CCOCC2)c(=O)n(C)n1
pIC50: 8.51
//
Mol smiles: CCOc1nnc(-c2cc(NC(=O)c3ccnc(S(C)(=O)=O)c3)cnc2C)cc1N1CCOCC1
pIC50: 7.91
//
Mol smiles: Cc1ccc(NC(=O)c2ccnc(C3COC3)c2)cc1-c1cc(N2CCOCC2)n(C)c(=O)c1
pIC50: 8.60
//
Mol smiles: Cc1ncc(NC(=O)c2cccc(C(F)(F)F)c2)cc1-c1cc(N2CCOCC2)nc(NC2CNC2)n1
pIC50: 8.26
//
Mol smiles: CCOc1nnc(-c2cc(NC(=O)c3ccnc(C(C)(C)F)c3)cnc2C)cc1N1CCOCC1
pIC50: 8.35
//
Mol smiles: CCNc1nc(-c2cc(NC(=O)c3cccc(C(F)F)c3)ccc2C)cc(N2CCOCC2)n1
pIC50: 9.15
//
Mol smiles: Cc1ccc(NC(=O)c2ccnc(C(C)(C)C#N)c2)cc1-c1cc(N2CC3CC(C2)O3)c(=O)n(C)c1
pIC50: 7.00
//
Mol smiles: Cc1ncc(NC(=O)c2ccnc(C(C)(C)C#N)c2)cc1-c1cncc(N2CCOCC2)n1
pIC50: 8.11
//
Mol smiles: COc1cccc(NC(=O)c2ccc(C)c(-c3cc(N4CCOCC4)c(=O)n(C)c3)c2)c1
pIC50: 7.03
//
Mol smiles: Cc1ccc(NC(=O)c2ccnc(C3(C#N)CC3)c2)cc1-c1cc(N2CCOCC2)c(=O)n(C)n1
pIC50: 9.15
//
Mol smiles: COCCOc1nnc(-c2cc(NC(=O)c3ccnc(C(C)(C)F)c3)ccc2C)cc1N1CCOCC1
pIC50: 9.10
//
Mol smiles: Cc1ccc(NC(=O)c2ccnc(C(C)(C)C#N)c2)cc1-c1cc(N2CCOCC2)n(C)c(=O)c1
pIC50: 8.55
